Where do these numbers come from? They come from patent US8680275B2.

- target: human orexin 1 receptor (Homo sapiens (Human), UniProt O43613)
- Sequence (O43613 whole entry): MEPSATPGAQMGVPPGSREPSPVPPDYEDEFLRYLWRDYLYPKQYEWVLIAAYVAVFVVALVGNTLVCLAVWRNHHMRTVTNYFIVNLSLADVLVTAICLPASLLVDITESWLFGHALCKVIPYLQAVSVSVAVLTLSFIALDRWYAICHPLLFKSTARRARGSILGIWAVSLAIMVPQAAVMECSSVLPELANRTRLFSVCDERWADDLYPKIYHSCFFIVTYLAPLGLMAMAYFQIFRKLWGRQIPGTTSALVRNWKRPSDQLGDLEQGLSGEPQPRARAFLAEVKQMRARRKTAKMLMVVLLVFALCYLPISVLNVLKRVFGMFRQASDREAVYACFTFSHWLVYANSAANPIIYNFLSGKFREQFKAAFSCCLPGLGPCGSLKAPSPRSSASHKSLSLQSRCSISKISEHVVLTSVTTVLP
- experimental protocol: Human orexin 1 receptor radioligand binding ([3H]-SB674042 competition)
- setup conditions: CHO cells stably expressing human orexin 1 receptor; [3H]-SB674042 4 nM final; read-out: OR-1 Ki
Consider the following compounds and their measured log10 of Ki readings.
readout: log10 of Ki (log10 of the value in µM)

compound	log10 of Ki
Cc1cc(C)nc(N2C[C@@H]3CCN(C(=O)c4cccc5c4-c4ccccc4C5)C[C@@H]32)n1 [Example 167]	-0.66
COc1cccc(OC)c1C(=O)N1CCC2CN(c3nc4ccccc4o3)C2C1 (centres unmarked) [Example 16]	-0.34
O=C(c1cccc(F)c1-n1nccn1)N1CC[C@H]2CN(c3cnc4ccccc4n3)[C@H]2C1 [Example 116]	-1.64
Cc1ccc(N2C[C@@H]3CCN(C(=O)c4cc(F)ccc4-n4nccn4)C[C@@H]32)nc1 [Example 131]	0.20
Cc1cc(C)nc(N2CC3CN(C(=O)c4ccccc4-n4nccn4)CC32)n1 (centres unmarked) [Example 66]	0.98
Cc1cccc(N2C[C@@H]3CCN(C(=O)c4ccccc4-n4nccn4)C[C@@H]32)n1 [Example 125]	0.52
Cc1cncc(N2C[C@@H]3CCN(C(=O)c4ccccc4-n4nccn4)C[C@@H]32)n1 [Example 112]	0.29
Cc1cc(C)nc(N2C[C@@H]3CCN(C(=O)c4cccc(F)c4-n4nccn4)C[C@@H]32)c1 [Example 148]	-0.07

---

Listed here: items and their measured pKi.
- target: human orexin 1 receptor (Homo sapiens (Human))
- experimental protocol: Human orexin 1 receptor radioligand binding ([3H]-SB674042 competition)
- setup conditions: CHO cells stably expressing human orexin 1 receptor; [3H]-SB674042 4 nM final; read-out: OR-1 Ki
pKi: −log10 of the molar value.
readout: pKi

compound	relation operator	measured value
Cc1nccnc1N1C[C@@H]2CCN(C(=O)c3ccc(F)cc3-n3nccn3)C[C@@H]21	=	5.00
Cc1cc(C)nc(N2C[C@@H]3CCN(C(=O)c4ncccc4-n4ccnn4)C[C@@H]32)n1	=	5.00
Cc1cc(C)nc(N2C[C@@H]3CCN(C(=O)c4nc(C)sc4-c4ccc(F)cc4)C[C@@H]32)n1	=	5.67
O=C(c1cccc(F)c1-n1nccn1)N1CC[C@H]2CN(c3nc4cc(Cl)ccc4o3)[C@H]2C1	=	7.02
COc1ccc(C(=O)N2CC[C@H]3CN(c4nc(C)cc(C)n4)[C@H]3C2)c(-n2ccnn2)n1	=	5.00
CN(C)c1nc(N2C[C@@H]3CCN(C(=O)c4cc(F)ccc4-n4nccn4)C[C@@H]32)cc(C(F)(F)F)n1	=	7.33
Cc1cc(C)nc(N2C[C@@H]3CCN(C(=O)c4ncccc4-n4nccn4)C[C@@H]32)n1	=	5.00
CN(C)c1nc(N2C[C@@H]3CCN(C(=O)c4c(F)cccc4-n4nccn4)C[C@@H]32)cc(C(F)(F)F)n1	=	7.72
COc1ccc(C(=O)N2CC[C@H]3CN(c4nc(C)cc(C)n4)[C@H]3C2)c(-n2nccn2)c1	≤	5.00
O=C(c1ccccc1-n1nccn1)N1CC[C@H]2CN(c3nc4cc(Cl)ccc4o3)[C@H]2C1	=	7.49
COc1ccnc(N2CC3CN(C(=O)c4ccccc4-c4cccs4)CC32)n1 (stereo not drawn)	=	5.30
COc1ccc(-n2nccn2)c(C(=O)N2CC[C@H]3CN(c4cc(C(F)(F)F)ccn4)[C@H]3C2)c1	=	5.97
Cc1ccc(-c2ncccn2)c(C(=O)N2CC[C@H]3CN(c4nc(C)cc(C)n4)[C@H]3C2)c1	=	6.84
Cc1ccnc(N2CC3CN(C(=O)c4ccccc4Br)CC32)n1 (stereo not drawn)	=	5.00
Cc1ccc(C(F)(F)F)c(C(=O)N2CC[C@H]3CN(c4ccnc(-c5ccccc5)n4)[C@H]3C2)c1	=	7.80
